ASSAY_COMMENT: In vivo pharmacokinetic evaluation in mice
CONDITIONS_USED: male, CD-1, mouse, plasma, po, 0.02 mg/kg
READOUT_TYPE: CL/F

compound="c1ccc2c(c1)[nH]c1ccncc12 [Compound 3, 9H-3-azacarbazole]" readout_type=CL/F result="194 mL/min/kg"

* * *

ASSAY_COMMENT: Cytotoxic activity test
Assay type: cell-based, human
CONDITIONS_USED: human, NHDF cells
Each entry below lists one item and its recorded IC50 value.
READOUT_TYPE: IC50 (µg/mL)

structure_string=c1ccc2c(c1)[nH]c1ccncc12 result=32
structure_string=c1ccc2c(c1)[nH]c1cnccc12 result=40
structure_string=Cc1ccn(C)c2nc3ccccc3c1-2 result=11.8
structure_string=Cn1cccc2nc3cccnc3c1-2 result=42.8
